Cited source: ChEMBL document CHEMBL1150457

Biological target: Human immunodeficiency virus type 1 protease (Human immunodeficiency virus 1, UniProt Q72874)
Measured Quantity: Ki

CC(C)(C)OC(=O)N[C@@H](Cc1ccccc1)[C@H](O)CNC[C@@H](O)[C@H](Cc1ccccc1)NC(=O)OC(C)(C)C = 100 nM

Shifting focus to the compound that follows.
Param item = CC(C)(C)OC(=O)N[C@@H](Cc1ccccc1)[C@H](O)CNC[C@@H](O)[C@H](Cc1ccccc1)NC(=O)[C@@](C)(O)C(C)(C)C ; retrieve measured Ki. 24 nM

---

// reported EC50 for each item listed
System: Human immunodeficiency virus 1
Experiment: Concentration required to inhibit HIV-1 virus replication by 50% as determined by XTT
Assay type: functional
Details: Human immunodeficiency virus 1; read-out: ED50 (the source's name)
Kindly provide the numeric value in nM only, without the unit symbol.

These recorded examples may help you get a feel for the data.
CC(C)(C)OC(=O)N[C@@H](Cc1ccccc1)[C@H](O)CNC[C@@H](O)[C@H](Cc1ccccc1)NC(=O)[C@](C)(O)C(C)(C)C = 1380
CC(C)(C)OC(=O)N[C@@H](Cc1ccccc1)[C@H](O)CNC[C@@H](O)[C@H](Cc1ccccc1)NC(=O)[C@@](C)(O)c1ccccc1 = 1350
CC(C)(C)OC(=O)N[C@@H](Cc1ccccc1)[C@H](O)CNC[C@@H](O)[C@H](Cc1ccccc1)NC(=O)C(C)(O)C(C)(C)CO (stereo in doubt; form 2) = 160
CC(C)(C)CC(=O)N[C@@H](Cc1ccccc1)[C@H](O)CNC[C@@H](O)[C@H](Cc1ccccc1)NC(=O)OC(C)(C)C = 1200
CC(C)(C)OC(=O)N[C@@H](Cc1ccccc1)[C@H](O)CNC[C@@H](O)[C@H](Cc1ccccc1)NC(=O)C(O)C(F)(F)F (single isomer, unassigned; isomer A) = 60

// EC50 lookup, key: CC(C)(C)OC(=O)N[C@@H](Cc1ccccc1)[C@H](O)CNC[C@@H](O)[C@H](Cc1ccccc1)NC(=O)C1(O)COCC1(C)C (stereo in doubt; form 2) 230

Returns the measured EC50 for the input molecule. Input: CC(C)(C)OC(=O)N[C@@H](Cc1ccccc1)[C@H](O)CNC[C@@H](O)[C@H](Cc1ccccc1)NC(=O)OC(C)(C)C 80

# query: EC50 of entry CC(C)(C)OC(=O)N[C@@H](Cc1ccccc1)[C@H](O)CNC[C@@H](O)[C@H](Cc1ccccc1)NC(=O)[C@@](C)(O)C(C)(C)C 60

Query (molecule): CC(C)(C)OC(=O)N[C@@H](Cc1ccccc1)[C@H](O)CNC[C@@H](O)[C@H](Cc1ccccc1)NC(=O)[C@H](O)C(C)(C)C ; field requested: EC50 55

GET /values?readout=EC50&item= CC(C)(C)OC(=O)N[C@@H](Cc1ccccc1)[C@H](O)CNC[C@@H](O)[C@H](Cc1ccccc1)NC(=O)C(C)(C)O 970

Need EC50 of CC(C)(C)OC(=O)N[C@@H](Cc1ccccc1)[C@H](O)CNC[C@@H](O)[C@H](Cc1ccccc1)NC(=O)[C@H](O)c1ccccc1 , thanks. 650

What does the record list as EC50 for CC(C)(C)OC(=O)N[C@@H](Cc1ccccc1)[C@H](O)CNC[C@@H](O)[C@H](Cc1ccccc1)NC(=O)C(O)(CO)C(C)(C)C (stereo in doubt) ? 25
